Target: Human β-catenin (Homo sapiens, UniProt P35222)
Construct: Variant: β-catenin (human) (Hs134–670)+TCF4(Hs1–53); purchased Proteros Biostructures
Sequence (P35222 134-670): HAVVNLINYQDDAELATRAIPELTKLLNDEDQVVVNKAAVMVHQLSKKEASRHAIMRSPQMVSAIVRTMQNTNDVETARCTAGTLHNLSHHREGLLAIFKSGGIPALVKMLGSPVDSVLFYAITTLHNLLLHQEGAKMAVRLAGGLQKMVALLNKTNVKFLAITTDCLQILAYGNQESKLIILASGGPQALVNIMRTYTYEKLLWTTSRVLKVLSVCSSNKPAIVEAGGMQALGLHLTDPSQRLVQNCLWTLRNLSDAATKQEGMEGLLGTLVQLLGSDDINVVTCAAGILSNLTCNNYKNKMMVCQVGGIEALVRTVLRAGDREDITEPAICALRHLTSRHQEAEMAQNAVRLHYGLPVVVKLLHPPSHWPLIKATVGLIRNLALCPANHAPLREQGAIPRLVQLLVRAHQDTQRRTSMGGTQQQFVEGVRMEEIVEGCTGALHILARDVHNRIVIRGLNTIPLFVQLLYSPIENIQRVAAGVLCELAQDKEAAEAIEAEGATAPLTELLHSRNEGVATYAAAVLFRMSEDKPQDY
Assay: Focal molography (FM) competition: free TCF4(7–51) with 250 nM β-catenin over TCF4(7–30) sensor, RKO cell lysate
Format: binding
Details: cell lysate 1 Mio cells/mL, Sensor 3, average of three runs, SD, read-out: IC50, Average ± SD
Where no end group is shown, it is not given here.
Assay Readout: IC50 (nM)
// note: answer is a bare numeric in nM

input: Annotate the sequence GGGDDLGANDELISFKDEGEQEEKSSENSSAERDLADVKSSLVNE [TCF4(7–51)] with its measured IC50.
output: 140
